- System: HT29 colon
- assay.protocol: NCI-60 one-dose screen, 48 h
- test.settings: 10 µM unless noted
The panel holds about 83,000 compounds, 20% with a hit somewhere; the sample as a whole holds those more often. Active and inactive are the calls of the source. Rule for the calls: active = growth percent below 10; inactive = the rest.
Log the outcome using a class from active, inactive

Consider the following illustrative entries.
{"columns": ["molecule", "subject.of.test", "category"],
 "data": [
  ["O=C1CC2c3cc(-c4cc5ccccc5o4)ccc3CCN2C(=O)N1c1ccccc1 (centres undefined)", "HT29 colon", "inactive"],
  ["O=C(Nc1ccccc1O)c1ccc(NS(=O)(=O)c2cccc3cccnc23)cc1", "HT29 colon", "inactive"],
  ["CCCN(CCC)c1ccc(/C=C/c2ccc3cc(OCC)ccc3n2)cc1", "HT29 colon", "inactive"],
  ["COc1cc(-c2nc(Nc3nc4ccccc4[nH]3)nc(N)c2C#N)cc(OC)c1OC", "HT29 colon", "inactive"],
  ["C[C@@H](Oc1cc(-c2cnn(C3CC4(CCCNC4)C3)c2)cnc1N)c1c(Cl)ccc(F)c1Cl (some centres undefined)", "HT29 colon", "active"],
  ["Cc1ccccc1-n1nnc(C(=O)Nc2ccc(-c3ccccc3)cn2)c1C", "HT29 colon", "inactive"],
  ["CC(C)N1CCN(c2ccc(OC[C@H]3CO[C@](Cn4cncn4)(c4ccc(Cl)cc4Cl)O3)cc2)CC1", "HT29 colon", "inactive"],
  ["Cn1c2c(cc(S(=O)(=O)c3ccccc3)c1=O)CCc1c-2cnn1-c1cccc(Cl)c1", "HT29 colon", "inactive"],
  ["COc1cc(-c2nc3ccccc3o2)cc(CN2CCN(c3ccccc3)CC2)c1O", "HT29 colon", "inactive"],
  ["CC(=O)OC[C@H](O)[C@@]1(O)CC[C@H]2[C@@H]3CCC4=CC(=O)CC[C@]4(C)[C@H]3[C@@H](O)C[C@@]21C", "HT29 colon", "inactive"]
]}

Data request: Call for entry Fc1c[c-]c(-c2ccccn2)c(F)c1.Fc1c[c-]c(-c2ccccn2)c(F)c1.[Cl][Pt+].[Cl][Pt+].c1ccc([PH+](C[PH+](c2ccccc2)c2ccccc2)c2ccccc2)cc1 :
Data returned: active

Data request: Call for entry COc1ccccc1/C=C/C(=O)/C=C/c1ccccc1O :
Data returned: active

Data request: Call for entry O=C(c1ccc2ncc(-c3nc(NC4CC4)ncc3F)n2c1)N1CCOCC1 :
Data returned: inactive

Data request: Call for entry O=C1C(Br)=C(c2ccccc2)C(=O)C(Br)=C1c1ccccc1 :
Data returned: inactive

Data request: Call for entry COc1ccc(-c2nc3sccn3c2/C=C/C(=O)c2cc(OC)c(OC)c(OC)c2)cc1OC :
Data returned: active

Data request: Call for entry O=C1/C(=C/c2ccc(Cl)cc2)CN(Cc2cn(CCCNc3ccnc4cc(Cl)ccc34)nn2)C/C1=C\c1ccc(Cl)cc1 :
Data returned: active

Data request: Call for entry CCN(CC)c1ccc2c(c1)OS(=O)(=O)N=C2 :
Data returned: inactive

Data request: Call for entry O=C1CCC(N2Cc3c(C#CCCCNC(=O)c4cc5c(o4)C(=O)c4ccccc4C5=O)cccc3C2=O)C(=O)N1 (centres undefined) :
Data returned: active

Data request: Call for entry COc1cc(-c2nc(SC(C)C)nc(Nc3cccc(C)c3)c2C#N)cc(OC)c1OC :
Data returned: inactive
